# method: In vivo rat PK
# condition_context: iv, read-out: In vivo rat PK CL (i.v.)
metric_name: clearance (mL/min/kg)
Report the figure in mL/min/kg without appending any unit label.

compound	metric_name	readout_unit	value_reported
CN1C[C@@H]2c3ncccc3Oc3ccccc3[C@@H]2C1 [Co. 2]	clearance	mL/min/kg	139

Kindly consider the entry below.
Entry CN1CCN2c3ncccc3Cc3ccccc3C2C1 (centres unmarked) [Mirtazapine, reference compound] has what clearance?
101

###

// values below are reported Cmax
# method: In vivo rat PK
# condition_context: po
Number only, in ng/mL; omit the unit.

compound	metric_name	readout_unit	value_reported
CN1C[C@@H]2c3ncccc3Oc3cc(Cl)ccc3[C@@H]2C1	Cmax	ng/mL	51
CN1CCN2c3ncccc3Cc3ccccc3C2C1 (stereo not drawn) [Mirtazapine, reference compound]	Cmax	ng/mL	30

// returns reported Cmax for input CN1C[C@@H]2c3ncccc3Oc3ccccc3[C@@H]2C1
17
